Property: normalised viability; scope: individual compounds
- Tested on: MDA-MB-468
- ASSAY NOTES: normalised viability (% of control), CellTiter-Blue; higher = more viable cells (100 = DMSO, 0 = benzethonium chloride kill control)
- ASSAY CONDITIONS: incubation time: 72 h
Answer shape: numeric part, then the unit.

Reference set (5 entries):
- COMPOUND: "CC(C)(C)c1cnc(CSc2cnc(NC(=O)C3CCNCC3)s2)o1 [SNS-032] (1 nM)"
  normalised viability: "104%"
- COMPOUND: "CC[C@@H]1C(=O)OC[C@@H]1Cc1cncn1C [Pilocarpine] (4 nM)"
  normalised viability: "104%"
- COMPOUND: "O=C1CN2Cc3c(ccc(Cl)c3Cl)N=C2N1 [Anagrelide] (1 nM)"
  normalised viability: "101%"
- COMPOUND: "CC1=C2C[C@H]3[C@@H](CC=C4C[C@@H](O)CC[C@@]43C)[C@@H]2CC[C@]12O[C@@H]1C[C@H](C)CN[C@H]1[C@H]2C [Cyclopamine] (1 nM)"
  normalised viability: "103%"
- COMPOUND: "O=NN(CCCl)C(=O)NCCCl [Carmustine] (1 nM)"
  normalised viability: "106%"

Asked: # query: normalised viability of entry Nc1nc2[nH]cnc2c(=S)[nH]1 [Thioguanine] (1 nM)
Given back: 104%

Asked: # query: normalised viability of entry CC(=O)c1c(C)c2cnc(Nc3ccc(N4CCNCC4)cn3)nc2n(C2CCCC2)c1=O (1 nM)
Given back: 109%

----------
- Test system: HCC1143
- ASSAY NOTES: normalised response (% of control), CellTox Green; higher = less cell death (100 = DMSO, 0 = benzethonium chloride kill control)
- ASSAY CONDITIONS: incubation time: 72 h
ENDPOINT: normalised response (%)
Entry rule: numbers only, all in %.

Asked: # query: normalised response of entry CC[C@@H]1C(=O)OC[C@@H]1Cc1cncn1C [Pilocarpine] (400 nM)
Given back: 104

Asked: # query: normalised response of entry C[C@]12CC[C@@H]3c4ccc(OC(=O)N(CCCl)CCCl)cc4CC[C@H]3[C@@H]1CC[C@@H]2O [Estramustine] (10000 nM)
Given back: 110

Asked: # query: normalised response of entry COc1cc2c(cc1O)CC[C@@H]1[C@@H]2CC[C@]2(C)[C@@H](O)CC[C@@H]12 [2-methoxyestradiol] (10000 nM)
Given back: 106

Asked: # query: normalised response of entry Cc1sc2c(c1C)C(c1ccc(Cl)cc1)=N[C@@H](CC(=O)OC(C)(C)C)c1nnc(C)n1-2 [(+)JQ1] (1000 nM)
Given back: -3.05

Asked: # query: normalised response of entry CC(=O)N(O)CCCCCNC(=O)CCC(=O)N(O)CCCCCNC(=O)CCC(=O)N(O)CCCCCN [Deferoxamine] (100 nM)
Given back: 102

----------
- Test system: CAL-120
- ASSAY NOTES: normalised viability (% of control), CellTiter-Blue; higher = more viable cells (about 100 = DMSO control)
- ASSAY CONDITIONS: 100 nM; incubation time: 72 h
ENDPOINT: normalised viability (%)
Entry rule: numbers only, all in %.

- MOLECULE: "Cn1cc(C2=Nc3cc(NC(=O)C(N)C4CCCCC4)cc4c3C2=CNNC4=O)cn1 (stereo unspecified)"
  normalised viability / %: 89.9

Asked: # query: normalised viability of entry CC1(C)CNc2cc(NC(=O)c3cccnc3NCc3ccncc3)ccc21
Given back: 71.9

Asked: # query: normalised viability of entry CC1=C2C[C@H]3[C@@H](CC=C4C[C@@H](O)CC[C@@]43C)[C@@H]2CC[C@]12O[C@@H]1C[C@H](C)CN[C@H]1[C@H]2C
Given back: 88.2

Asked: # query: normalised viability of entry O=NN(CCCl)C(=O)NCCCl
Given back: 91.3

Asked: # query: normalised viability of entry Cn1cnc2c(F)c(Nc3ccc(Br)cc3Cl)c(C(=O)NOCCO)cc21
Given back: 82.8

Asked: # query: normalised viability of entry CC(=O)c1c(C)c2cnc(Nc3ccc(N4CCNCC4)cn3)nc2n(C2CCCC2)c1=O
Given back: 73.8
